Assay: physchem
Details: octanol/water
Description: Lipophilicity, logD of the compound by shake flask assay
Value Type: logD

Some molecules with recorded logD:
{"Structure String": "Cc1[nH]nc2[nH]c(=O)cc(-c3ccccc3)c12", "logD": 2.2}
{"Structure String": "Cc1[nH]nc2[nH]c(=O)cc([C@H]3CC[C@H](CCC#N)CC3)c12", "logD": 1.8}
{"Structure String": "CCc1[nH]nc2[nH]c(=O)cc(C3CCCCC3)c12", "logD": 3}
{"Structure String": "Cc1[nH]nc2[nH]c(=O)c(CO)c(C3CCCCC3)c12", "logD": 2.1}
{"Structure String": "Cc1[nH]nc2[nH]c(=O)cc([C@H]3C[C@H]4C[C@@H]3C[C@H]4CC#N)c12", "logD": 1.6}
{"Structure String": "Cc1[nH]nc2[nH]c(=O)cc([C@@H]3C[C@@H]4C[C@H]3C[C@@H]4CC#N)c12", "logD": 1.5}

(1) O=c1cc(C2CCCCC2)c2c(C3CC3)[nH]nc2[nH]1
(2) Cc1[nH]nc2[nH]c(=O)cc([C@H]3CC[C@H](CC#N)CC3)c12
Query: Out of 1 and 2 , name the one with the higher logD. Please identify the chosen entry by its label.
Result: 1

###

Consider compounds characterized by their IC50 with Non-receptor tyrosine-protein kinase TYK2 (Homo sapiens).
Sequence (P29597 whole entry): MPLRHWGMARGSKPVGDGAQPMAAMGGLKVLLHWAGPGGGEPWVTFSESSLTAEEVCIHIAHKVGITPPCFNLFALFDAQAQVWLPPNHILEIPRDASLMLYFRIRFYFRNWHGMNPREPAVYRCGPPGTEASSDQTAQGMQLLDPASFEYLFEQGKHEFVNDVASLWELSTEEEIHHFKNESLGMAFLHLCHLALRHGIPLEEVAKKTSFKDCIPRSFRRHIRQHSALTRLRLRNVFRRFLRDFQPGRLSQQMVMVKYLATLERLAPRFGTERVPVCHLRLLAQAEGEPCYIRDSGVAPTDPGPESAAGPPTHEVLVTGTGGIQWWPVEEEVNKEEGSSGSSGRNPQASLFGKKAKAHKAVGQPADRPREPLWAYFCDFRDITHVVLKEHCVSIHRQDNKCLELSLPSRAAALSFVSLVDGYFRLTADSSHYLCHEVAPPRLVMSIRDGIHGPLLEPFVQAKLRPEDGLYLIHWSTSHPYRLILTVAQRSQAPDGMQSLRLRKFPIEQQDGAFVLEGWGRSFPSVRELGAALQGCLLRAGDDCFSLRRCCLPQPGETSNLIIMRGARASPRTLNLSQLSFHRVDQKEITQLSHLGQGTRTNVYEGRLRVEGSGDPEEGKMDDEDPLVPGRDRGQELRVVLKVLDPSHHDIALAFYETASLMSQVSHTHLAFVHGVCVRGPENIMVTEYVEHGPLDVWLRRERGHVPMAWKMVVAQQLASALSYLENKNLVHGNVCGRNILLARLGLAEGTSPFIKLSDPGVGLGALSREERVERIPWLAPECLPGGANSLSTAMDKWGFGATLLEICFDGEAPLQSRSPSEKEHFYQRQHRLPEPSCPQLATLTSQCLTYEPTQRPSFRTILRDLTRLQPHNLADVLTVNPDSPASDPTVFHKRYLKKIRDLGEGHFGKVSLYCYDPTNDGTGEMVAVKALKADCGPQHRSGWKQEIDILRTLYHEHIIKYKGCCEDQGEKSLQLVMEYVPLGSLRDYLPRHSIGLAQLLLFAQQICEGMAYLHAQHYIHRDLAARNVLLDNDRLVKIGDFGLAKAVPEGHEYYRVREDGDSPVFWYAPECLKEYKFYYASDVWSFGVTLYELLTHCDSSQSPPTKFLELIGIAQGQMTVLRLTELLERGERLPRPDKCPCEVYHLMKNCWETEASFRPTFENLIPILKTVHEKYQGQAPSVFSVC
Value Type: IC50 (nM)

Look over these answered cases.
{"Compound": "O=c1cc(C2CCCCC2)c2c(C3CC3)[nH]nc2[nH]1", "Result Units": "nM", "IC50": 1600}
{"Compound": "Cc1[nH]nc2[nH]c(=O)cc([C@H]3CC[C@H](NC(=O)[C@@H]4CC4(F)F)CC3)c12", "Result Units": "nM", "IC50": 220}
{"Compound": "Cc1[nH]nc2[nH]c(=O)cc([C@H]3CCCC[C@H]3C)c12 (racemic)", "Result Units": "nM", "IC50": 700}
{"Compound": "Cc1[nH]nc2[nH]c(=O)cc(C3CCCCC3)c12", "Result Units": "nM", "IC50": 670}
{"Compound": "Cc1[nH]nc2[nH]c(=O)cc([C@H]3CC[C@H](NC(=O)[C@H]4CC4(F)F)CC3)c12", "Result Units": "nM", "IC50": 2700}

(a) Cc1[nH]nc2[nH]c(=O)cc(CC3CCC3)c12
(b) Cc1[nH]nc2[nH]c(=O)cc([C@@H]3C[C@@H]4C[C@H]3C[C@H]4CC#N)c12
Query: // select label with min value of measured IC50 from [ a , b ] Identify your pick by its label.
Result: b

(A) Cc1[nH]nc2[nH]c(=O)cc(C3CCCC3)c12
(B) Cc1[nH]nc2[nH]c(=O)cc([C@@H]3C[C@@H]4C[C@H]3C[C@@H]4CC#N)c12
Query: Short answer wanted: higher IC50, A or B ? Answer by stating the label of the chosen item.
Result: A

###

Biological target: Tyrosine-protein kinase JAK3 (Homo sapiens)
Sequence (P52333 whole entry): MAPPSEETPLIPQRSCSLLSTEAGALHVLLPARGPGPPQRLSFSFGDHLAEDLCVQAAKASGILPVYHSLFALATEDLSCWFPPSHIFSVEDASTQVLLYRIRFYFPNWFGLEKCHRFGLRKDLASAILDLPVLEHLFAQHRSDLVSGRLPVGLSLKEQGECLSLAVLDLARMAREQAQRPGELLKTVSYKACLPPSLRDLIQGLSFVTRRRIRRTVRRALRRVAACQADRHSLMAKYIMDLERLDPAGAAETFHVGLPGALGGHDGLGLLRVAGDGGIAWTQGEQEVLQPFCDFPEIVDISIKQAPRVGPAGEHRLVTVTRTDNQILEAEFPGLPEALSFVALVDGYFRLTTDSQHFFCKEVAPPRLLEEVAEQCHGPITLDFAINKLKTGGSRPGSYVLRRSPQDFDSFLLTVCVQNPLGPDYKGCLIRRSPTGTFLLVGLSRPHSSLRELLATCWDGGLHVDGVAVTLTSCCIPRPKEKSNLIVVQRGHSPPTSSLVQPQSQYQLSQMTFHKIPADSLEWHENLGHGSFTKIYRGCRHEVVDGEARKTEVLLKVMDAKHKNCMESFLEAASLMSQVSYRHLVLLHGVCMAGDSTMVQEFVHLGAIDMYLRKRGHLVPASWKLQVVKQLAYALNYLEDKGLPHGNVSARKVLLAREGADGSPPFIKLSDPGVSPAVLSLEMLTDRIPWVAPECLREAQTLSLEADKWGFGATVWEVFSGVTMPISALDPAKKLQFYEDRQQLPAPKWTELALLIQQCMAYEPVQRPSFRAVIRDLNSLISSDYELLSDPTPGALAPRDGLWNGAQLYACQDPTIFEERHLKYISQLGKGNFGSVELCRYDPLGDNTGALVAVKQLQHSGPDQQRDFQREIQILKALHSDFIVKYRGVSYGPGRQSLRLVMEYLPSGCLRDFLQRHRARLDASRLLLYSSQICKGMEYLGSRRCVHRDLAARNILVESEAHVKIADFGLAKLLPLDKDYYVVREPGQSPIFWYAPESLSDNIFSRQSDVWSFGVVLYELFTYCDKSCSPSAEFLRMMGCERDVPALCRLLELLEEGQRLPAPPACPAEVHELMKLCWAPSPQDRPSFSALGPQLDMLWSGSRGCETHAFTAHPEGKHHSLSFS
pIC50: −log10 of the molar value.
Value Type: pIC50

// known answers, use as guide
{"Molecule": "O=c1cc(C2CCCCC2)c2c(C3CC3)[nH]nc2[nH]1", "Endpoint Value": 6.01}
{"Molecule": "Cc1[nH]nc2[nH]c(=O)cc([C@H]3CC[C@H](CC(=O)N4CCC(c5ccccc5)C4)CC3)c12 (mixture of isomers)", "Endpoint Value": 7.20}
{"Molecule": "Cc1[nH]nc2[nH]c(=O)cc([C@H]3CC[C@H](O)CC3)c12", "Endpoint Value": 5.77}
{"Molecule": "Cc1[nH]nc2[nH]c(=O)cc([C@@H]3C[C@@H]4C[C@H]3C[C@H]4CC#N)c12", "Endpoint Value": 6.38}
{"Molecule": "Cc1[nH]nc2[nH]c(=O)cc([C@H]3CCCC[C@H]3C)c12 (racemic)", "Endpoint Value": 6.96}

(P) O=c1cc(C2CCCCC2)c2c[nH]nc2[nH]1
(Q) Cc1[nH]nc2[nH]c(=O)cc([C@H]3C[C@H]4CC[C@@H]3C4)c12 (racemic)
(R) Cc1[nH]nc2[nH]c(=O)cc([C@H]3CC[C@H](NC(=O)[C@@H]4CC4(F)F)CC3)c12
Query: Order each entry by recorded pIC50, climbing from the minimum. Answer by naming the labels in the order asked.
Result: P, R, Q

(1) Cc1[nH]nc2[nH]c(=O)cc([C@H]3CC[C@H](N)CC3)c12
(2) Cc1[nH]nc2[nH]c(=O)cc(C3CCCCC3)c12
(3) Cc1[nH]nc2[nH]c(=O)cc([C@H]3CC[C@H](CC#N)CC3)c12
(4) Cc1[nH]nc2[nH]c(=O)c(CCO)c(C3CCCCC3)c12
(5) Cc1[nH]nc2[nH]c(=O)c(C#N)c(C3CCCCC3)c12
Query: Thanks in advance: please rank these 5 entries by pIC50, highest to lowest. Answer format: the labels, in the requested order.
Result: 3, 2, 4, 5, 1

(a) Cc1[nH]nc2[nH]c(=O)cc([C@@H]3C[C@H]4CC[C@@H]3C4)c12 (racemic)
(b) Cc1[nH]nc2[nH]c(=O)cc([C@H]3CC[C@H](NC(=O)C4CC4)CC3)c12
Query: Returns: the argument ( a or b ) having the larger pIC50. Your answer should be the label of the entry you select.
Result: a

###

Experiment: Oral bioavailability in rat at […]
Format: ADME, organism-based
Settings: in vivo
Value Type: bioavailability (%)
Report the figure in % without appending any unit label.

Query: Find the measured bioavailability of "Cc1[nH]nc2[nH]c(=O)cc([C@H]3C[C@H]4C[C@@H]3C[C@@H]4CC#N)c12" and report it.
Result: 14

###

Assay: Terminal Phase volume of distribution […] in rat at […], po or 0.06 mg/kg, iv
Type: ADME, organism-based
Settings: in vivo, read-out: Vbeta
Value Type: Vd (L/kg)
The reply should contain only the number, in L/kg.

Query: Please give measured Vd of the following entry: "Cc1[nH]nc2[nH]c(=O)cc([C@H]3C[C@H]4C[C@@H]3C[C@@H]4CC#N)c12"
Result: 1.2

###

Reported pIC50 values, UniProt:O60674.
Sequence (O60674 whole entry): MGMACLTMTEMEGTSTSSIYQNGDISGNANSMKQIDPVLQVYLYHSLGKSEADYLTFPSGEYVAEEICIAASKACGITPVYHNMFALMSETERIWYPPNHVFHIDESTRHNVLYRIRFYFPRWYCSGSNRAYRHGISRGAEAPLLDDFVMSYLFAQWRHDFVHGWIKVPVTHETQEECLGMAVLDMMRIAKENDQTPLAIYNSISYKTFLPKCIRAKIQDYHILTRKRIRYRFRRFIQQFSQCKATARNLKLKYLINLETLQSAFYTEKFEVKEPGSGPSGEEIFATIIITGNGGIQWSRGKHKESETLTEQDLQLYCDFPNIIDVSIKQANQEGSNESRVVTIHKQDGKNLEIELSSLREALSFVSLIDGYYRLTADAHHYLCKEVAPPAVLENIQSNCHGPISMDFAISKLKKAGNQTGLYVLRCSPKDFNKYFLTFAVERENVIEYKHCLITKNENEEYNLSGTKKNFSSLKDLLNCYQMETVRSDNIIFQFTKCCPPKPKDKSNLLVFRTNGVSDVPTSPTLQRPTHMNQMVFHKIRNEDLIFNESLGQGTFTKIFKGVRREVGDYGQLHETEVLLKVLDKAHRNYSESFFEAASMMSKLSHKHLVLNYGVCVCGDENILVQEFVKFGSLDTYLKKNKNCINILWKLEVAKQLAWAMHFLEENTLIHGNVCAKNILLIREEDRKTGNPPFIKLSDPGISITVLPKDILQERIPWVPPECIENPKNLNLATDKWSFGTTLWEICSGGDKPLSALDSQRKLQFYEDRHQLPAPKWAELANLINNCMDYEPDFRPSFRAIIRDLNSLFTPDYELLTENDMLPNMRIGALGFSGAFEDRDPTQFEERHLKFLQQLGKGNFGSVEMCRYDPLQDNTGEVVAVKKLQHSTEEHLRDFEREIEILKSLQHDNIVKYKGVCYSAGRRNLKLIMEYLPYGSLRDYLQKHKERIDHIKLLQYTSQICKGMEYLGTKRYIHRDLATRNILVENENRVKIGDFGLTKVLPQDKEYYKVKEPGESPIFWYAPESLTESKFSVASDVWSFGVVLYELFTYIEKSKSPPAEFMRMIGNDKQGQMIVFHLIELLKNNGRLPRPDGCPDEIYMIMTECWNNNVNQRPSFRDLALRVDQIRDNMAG
pIC50: −log10 of the molar value.
Value Type: pIC50

{"Compound": "Cc1[nH]nc2[nH]c(=O)cc([C@H]3CC[C@H](CC(=O)N4CCC(C)(C)CC4)CC3)c12", "System Name": "UniProt:O60674", "Endpoint Value": 7.49}
{"Compound": "Cc1[nH]nc2[nH]c(=O)cc(-c3ccccc3)c12", "System Name": "UniProt:O60674", "Endpoint Value": 5.38}
{"Compound": "Cc1[nH]nc2[nH]c(=O)c(C#N)c(C3CCCCC3)c12", "System Name": "UniProt:O60674", "Endpoint Value": 4.77}
{"Compound": "CCc1[nH]nc2[nH]c(=O)cc(C3CCCCC3)c12", "System Name": "UniProt:O60674", "Endpoint Value": 5.57}

(a) Cc1[nH]nc2[nH]c(=O)cc([C@H]3CC[C@H](OC(=O)[C@@H]4CC4(F)F)CC3)c12
(b) O=c1cc(C2CCCCC2)c2c[nH]nc2[nH]1
Query: Between these two entries, a and b , state which has the higher pIC50. // return label of chosen record
Result: a

(A) Cc1[nH]nc2[nH]c(=O)cc([C@H]3CC[C@H](CCC#N)CC3)c12
(B) Cc1[nH]nc2[nH]c(=O)cc(C3CCCC3)c12
(C) Cc1[nH]nc2[nH]c(=O)cc([C@@H]3C[C@H]4CC[C@@H]3C4)c12 (racemic)
(D) Cc1[nH]nc2[nH]c(=O)cc(C3CCCCC3)c12
Query: Rank entries according to their pIC50, from the largest number down. Answer format: the labels, ordered as requested.
Result: A, C, D, B
(A: 6.80, C: 6.42, D: 5.89, B: 4.89)

(P) Cc1[nH]nc2[nH]c(=O)cc([C@H]3C[C@H]4C[C@@H]3C[C@H]4CC#N)c12
(Q) Cc1[nH]nc2[nH]c(=O)cc([C@@H]3C[C@@H]4C[C@H]3C[C@H]4CC#N)c12
(R) O=c1cc(C2CCCCC2)c2c(C3CC3)[nH]nc2[nH]1
(S) Cc1[nH]nc2[nH]c(=O)cc(CC3CCC3)c12
Query: Task for the reader: rank each entry by its pIC50, from the minimum upward. // respond by listing labels in the order requested
Result: R, S, P, Q
(R: 5.89, S: 6.24, P: 6.44, Q: 7.03)

(a) Cc1[nH]nc2[nH]c(=O)cc([C@H]3CC[C@H](CC(=O)N4CCC(C#N)C4)CC3)c12 (mixture of isomers)
(b) Cc1[nH]nc2[nH]c(=O)cc([C@H]3CC[C@H](NC(=O)[C@H]4CC4(F)F)CC3)c12
Query: I'm curious whether a or b has the smaller pIC50 number. Which is it? To answer, give the label that identifies your chosen option.
Result: b
(b: 5.77, a: 7.05)
